B1: ZNF207 (parent)
chain: FPSAGQAQAAVQGPVGTDFKPLNS

variants of: B1; assay: protein stability index of a GFP-peptide fusion (GPS, HEK-293T) (PSI 1-6); higher = more stable; conditions: c terminus: a fixed tail appended;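 note: lentivirally expressed fusions sorted by FACS into six bins by GFP to DsRed ratio, PSI derived from sequencing read proportions per bin multiplied by bin number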
PARAMETER: protein stability index
In your answer, state the number alone without any accompanying words.

Before answering, review these 5 worked examples.
Task: // query protein stability index value for entry G16R
Result: 3.42

Task: Recorded protein stability index for A7I , please?
Result: 3.15

Task: What protein stability index value was documented for this variant, P21D ?
Result: 3.81

Task: What does the data say about its protein stability index? Entry: G5N
Result: 4.08

Task: Requested field: protein stability index. Item: F19C
Result: 3.49

Further cases:
Task: For the variant shown here, G5T , give the reported protein stability index.
Result: 4.11

Task: protein stability index for P14L ?
Result: 3.04

Task: Quick one: protein stability index of A9G ?
Result: 3.13
